- ASSAY INFO: Pharmacokinetic/toxicokinetic evaluation in rats
- Format: in vivo
- TEST SETTINGS: male, rat, plasma, iv, 7.6 mg/kg, male, Dose 5, read-out: AUC(0-24)
- Method: The study was conducted using three (3) test and one (1) control article groups. The high and low test article groups and the control group consisted of 28 animals each and were used to assess tolerance. […] PK/TK: Blood samples for test article blood level analysis were taken. […] Plasma (lithium heparin anticoagulant) samples were prepared and analyzed. […]
EXPERIMENTAL ENDPOINT: AUC(0-t) (ng·h/mL)
The reply should contain only the number, in ng·h/mL.

Please look up its AUC(0-t): CN1CCCC1CCNC(=O)c1cn2c3c(c(N4CCC(c5cnccn5)C4)c(F)cc3c1=O)Oc1cc3ccccc3cc1-2 (stereo not shown) [CX-3543]
1010

---

Would you kindly list pIC50 for each of these compounds?
- Test system: HeLa cells
- ASSAY INFO: MTS cell proliferation and/or cytotoxicity assay
- Assay type: cell-based, Human
- TEST SETTINGS: Homo sapiens, HeLa, 72 h, concentration at which 50% of antiproliferative cell response is seen; 3 days incubation; read-out: MTS Data Hella
For clarity, pIC50 is expressed as the negative log10 of concentration in mol/L.

Please look up its pIC50: CCN(CC)CCCC(C)NC(=O)c1cn2c3c(c(N4CCC(c5cnccn5)C4)c(F)cc3c1=O)Oc1ccccc1-2 (stereo not drawn)
5.60

Please look up its pIC50: CN1CCCC1CCNC(=O)c1cn2c3cc4c(=O)c5ccccc5c(=O)c4cc3oc3c(NCCN4CCCC4)c(F)cc(c1=O)c32 (stereo not drawn)
5.42

Please look up its pIC50: NC(N)=NCCCNC(=O)c1cn2c3c(c(N4CC[C@@H](N)C4)c(F)cc3c1=O)Oc1cc3ccccc3cc1-2
5.51

Please look up its pIC50: CN1CCCC1CCNC(=O)c1cn2c3c(c(N4CC[C@H](N)C4)c(F)cc3c1=O)Oc1ccccc1-2 (stereo partly drawn)
6.80

Please look up its pIC50: CN1CCN(CCC(=O)N[C@@H]2CCN(c3c(F)cc4c(=O)c(C(=O)NCCN5CCCC5)cn5c4c3Oc3cc4c(cc3-5)oc3ccccc34)C2)CC1
6.40

Please look up its pIC50: CN(C)CCCCNC(=O)c1cn2c3cc4oc5cc([N+](=O)[O-])ccc5[nH]c4cc3oc3c(NCCN4CCCC4)c(F)cc(c1=O)c32
5.32

---

- Test system: HeLa cells
- ASSAY INFO: MTS cell proliferation and/or cytotoxicity assay
- Assay type: cell-based, Human
- TEST SETTINGS: Homo sapiens, HeLa, 72 h, concentration at which 50% of antiproliferative cell response is seen; 3 days incubation; read-out: MTS Data Hella
EXPERIMENTAL ENDPOINT: IC50 (nM)
The reply should contain only the number, in nM.

// fetch HeLa cells IC50 for NC1CCN(c2c(F)cc3c(=O)c(C(=O)NCCCn4ccnc4)cn4c3c2Oc2cc3c(cc2-4)oc2ccccc23)C1 (stereo not drawn) [compound 521]
1700

// fetch HeLa cells IC50 for CN1CCCC1CCNC(=O)c1cn2c3c(c(NCCc4ccc(O)cc4)c(F)cc3c1=O)Oc1cc3ccccc3cc1-2 (stereo not drawn) [compound 378]
2100

// fetch HeLa cells IC50 for CN(C)CCCCNC(=O)c1cn2c3c(c(N4CC[C@@H](NC(=O)CCN5CCCCC5)C4)c(F)cc3c1=O)Oc1cc3c(cc1-2)oc1ccccc13 [compound 507]
3300

---

- ASSAY INFO: Pharmacokinetic/toxicokinetic evaluation in rats
- Type: in vivo
- TEST SETTINGS: female, rat, plasma, iv, 7.6 mg/kg, female, Dose 1, read-out: AUC(0-24)
EXPERIMENTAL ENDPOINT: AUC(0-t) (ng·h/mL)
The reply should contain only the number, in ng·h/mL.

Please look up its AUC(0-t): CN1CCCC1CCNC(=O)c1cn2c3c(c(N4CCC(c5cnccn5)C4)c(F)cc3c1=O)Oc1cc3ccccc3cc1-2 (stereo not shown) [CX-3543]
784

---

- SUBJECT OF TEST: c-Myc template DNA (c-myc quadruplex)
- ASSAY INFO: Quadruplex binding / stop assay (Taq polymerase arrest, capillary electrophoresis)
- TEST SETTINGS: read-out: Stop Data c-Myc μM; concentration at which 50% of the DNA was arrested (arrested:full-length 1:1)
Would you kindly list IC50 for each of these compounds?
The reply should contain only the number, in µM.

Please look up its IC50: O=C(NCCN1CCCC1)c1cn2c3c(c(N4CC5CCCNC5C4)c(F)cc3c1=O)Oc1cc3ccccc3cc1-2 (stereo not drawn) [compound 581]
0.18

Please look up its IC50: CN1CCCC1CCNC(=O)c1cn2c3c(c(NCCCN4CCOCC4)c(F)cc3c1=O)Oc1cc3c(cc1-2)oc1ccccc13 (stereo not drawn) [compound 362]
0.75

Please look up its IC50: CN1CCN(CCCNC(=O)c2cn3c4cc5c(=O)c6ccccc6c(=O)c5cc4oc4c(NCCN5CCCC5)c(F)cc(c2=O)c43)CC1 [compound 491]
0.45

Please look up its IC50: Nc1ccc2[nH]c3cc4oc5c(NCCN6CCCC6)c(F)cc6c(=O)c(C(=O)O)cn(c4cc3oc2c1)c56 [compound 9]
1.75

Please look up its IC50: CN1CCC(N(C)c2c(F)cc3c(=O)c(C(=O)NCCC4CCCN4C)cn4c3c2Oc2cc3ccccc3cc2-4)CC1 (stereo not drawn) [compound 257]
1.75

Please look up its IC50: CC(C)(C)OC(=O)N[C@H]1CCN(c2c(F)cc3c(=O)c(C(=O)NCCCN4CCOCC4)cn4c5cc6c(cc5oc2c34)c(=O)c2ccccc26)C1 [compound 204]
1.75

---

Would you kindly list log10 IC50 for each of these compounds?
- SUBJECT OF TEST: c-Myc template DNA (c-myc quadruplex)
- ASSAY INFO: Quadruplex binding / stop assay (Taq polymerase arrest, capillary electrophoresis)
- TEST SETTINGS: read-out: S DATA; Table 1D, stop assay data
Please note: log10 values; quantity IC50; unit nM.

Please look up its log10 IC50: CN1CCCC1CCNC(=O)c1cn2c3c(c(N4CCC(N)C4)c(F)cc3c1=O)Nc1cc3ccccc3cc1-2 (stereo not shown) [compound 1645]
2.79

Please look up its log10 IC50: COc1ccc(CCNc2c(F)cc3c(=O)c(C(=O)N(C)CCc4ccccn4)cn4c3c2Oc2cc3ccccc3cc2-4)cc1OC [compound 1759]
4.00

Please look up its log10 IC50: CN(C)CCCNc1c(F)cc2c(=O)c(C(=O)NCCC3CCCN3C)cn3c2c1Oc1cc2ccccc2cc1-3 (stereo not shown) [compound 1500]
2.88

Please look up its log10 IC50: CN1CCCC1CCNC(=O)c1cn2c3c(c(NCCCn4ccnc4)c(F)cc3c1=O)Oc1cc3ccccc3cc1-2 (stereo not shown) [compound 1670]
3.00

Please look up its log10 IC50: CN1CCCC1CCNC(=O)c1cn2c3c(c(NC4CN5CCC4CC5)c(F)cc3c1=O)Oc1cc3ccccc3cc1-2 (stereo not shown) [compound 1495]
2.88

Please look up its log10 IC50: N=C(N)NCCCCNC(=O)c1cn2c3c(c(N4CC5CCCNC5C4)c(F)cc3c1=O)Oc1cc3ccccc3cc1-2 (stereo not shown) [compound 1648]
3.00

Please look up its log10 IC50: CN(C)CCCCNC(=O)c1cn2c3c(c(N4CCC(N)C4)ccc3c1=O)Oc1cc3ccccc3cc1-2 (stereo not shown) [compound 1559]
2.26

Please look up its log10 IC50: CN(C)CCCCNC(=O)c1cn2c3c(c(NCCC4CCCN4C)ccc3c1=O)Oc1cc3ccccc3cc1-2 (stereo not shown) [compound 1526]
2.88

Please look up its log10 IC50: NCCCNC(=O)c1cn2c3c(c(N4CCC(N)C4)c(F)cc3c1=O)Oc1cc3ccccc3cc1-2 (stereo not shown) [compound 1716]
2.88

Please look up its log10 IC50: CN1CCCC1CCNC(=O)c1cn2c3c(c(NCCc4c[nH]c5ccccc45)c(F)cc3c1=O)Oc1cc3ccccc3cc1-2 (stereo not shown) [compound 1666]
3.24

Please look up its log10 IC50: CN1CCCC1CCNC(=O)c1cn2c3c(c(NC(=O)C4CCCNC4)c(F)cc3c1=O)Oc1cc3ccccc3cc1-2 (stereo not shown) [compound 1480]
3.24

Please look up its log10 IC50: CN1CCCC1CCNC(=O)c1cn2c3c(c(NC[C@H]4CCCO4)c(F)cc3c1=O)Oc1cc3ccccc3cc1-2 (stereo partly shown) [compound 1735]
3.40

Please look up its log10 IC50: CN(C)CC(C)(C)CNC(=O)c1cn2c3c(c(NCCCN4CCOCC4)c(F)cc3c1=O)Oc1cc3ccccc3cc1-2 [compound 1652]
3.00

Please look up its log10 IC50: CCN(CC)CCCC(C)NC(=O)c1cn2c3c(c(NCCc4ccc(OC)c(OC)c4)c(F)cc3c1=O)Oc1cc3ccccc3cc1-2 (stereo not shown) [compound 1758]
3.97
